As shown below, each of these molecules has a reported TGI value.
Test system: OVCAR-4 ovarian
Test: NCI tumour cell line growth inhibition, 48 h
Where a SMILES comes first, the peptide text is derived from it.
Give the number; µM is assumed, so skip it.

Answered cases to consult:
CCC(C)C1NC(=O)C(CCCCN)NC(=O)C(CCCCN)NC(=O)C(CC(C)C)NC(=O)C(CCCCN)NC(=O)C(C(C)CC)NC(=O)C(C(C)C)NC(=O)C(C(C)CC)NC(=O)C(CCCCN)NC(=O)C(CCCCN)NC(=O)C(C)NC(=O)C(CCCCN)NC(=O)C(CC(C)C)NC1=O (configuration not stated) (cyclo(AKKIVIKLKKILK); configuration not given here): 13.4
O=C1NC(N/N=C\C(O)C(O)C(O)C(O)CO)=N/C1=C\c1ccc(Cl)cc1 (configuration not stated): 26

# evaluate next
// assay OVCAR-4 ovarian, entry COc1cc2c(cc1OCCCC(=O)Nc1cc(C(=O)Nc3cc(C(=O)Nc4cc(C(=O)NCCCN(C)C)n(C)n4)n(C)c3)n(C)c1)N=CC1CCCN1C2=O (configuration not stated) , TGI value = 38.6

----------
Test system: UACC-62 melanoma
Experiment: NCI tumour cell line growth inhibition, 48 h
TGI values for the compounds below.

CCCCNC(=O)OCCN=C1c2ccccc2C(Br)C(Br)c2ccccc21 (stereo not given): > 100 µM
Fc1ccc(-c2ncn(C3CCNCC3)c2-c2ccnc(Oc3cccc(C(F)(F)F)c3)n2)cc1: 7.59 µM
CCNC(=O)N1CCc2c(Cl)c3c(c(OC)c2[C@@H]1[C@H]1OCc2c1ccc(OC)c2OC)OCCO3: > 100 µM
COc1ccc2c(c1OC)OC[C@@H](C1=CC(=O)C=C(O)C1=O)C2: 25.1 µM
CN(C)N=Nc1cn[nH]c1C(N)=O: 93.3 µM

The compound listed as "COCCOc1nc(-c2ccccc2)nc2ccccc12" has a reported TGI of > 100 µM

Reported TGI for CC1=CC(C)C(C)N(CC2=NCCN2)c2ccccc21 (stereo not given) was > 100 µM

Record summary for "COc1cc2nccc(Oc3ccc(NC(=O)C4(C(=O)Nc5ccc(F)cc5)CC4)cc3)c2cc1OC(=O)c1ccc(N)cc1" : reported TGI = > 100 µM

Record summary for "O=c1oc2c([N+](=O)[O-])cc([N+](=O)[O-])cc2c2ccccc12" : reported TGI = > 100 µM

Entry under test: CC1C2CC(CC23OCC(CCl)O3)C1(C)C (stereo not given) . Its TGI was > 100 µM

----------
Parameter: GI50. Scope: all listed entries.
Test system: U251 CNS

O=C(NNC(=O)c1ccccc1S)c1ccccc1S: 31.8 µM
COc1ccc2c(c1OC)C(=O)OC2C1c2c(c(N)c3c(c2OC)OCO3)CCN1C (stereo not given): 3.94 µM
O=C(Nc1ccccc1C(=O)N/N=C(\c1ccccc1)c1ccccn1)c1ccccc1: 0.657 µM
COc1ccc(C2NC(=O)c3cc4c(cc3N2)OCO4)cc1 (stereo not given): 0.849 µM

Query compound follows.
Test item "C=C(C)[C@@H]1CC[C@]2(C(N)=O)CC[C@]3(C)[C@H](CC[C@@H]4[C@@]5(C)C/C(=C/c6cccnc6)C(=O)C(C)(C)[C@@H]5CC[C@]43C)[C@@H]12" ; U251 CNS; reported GI50 was 7.3 µM

----------
Test system: IGROV1 ovarian
Experiment: NCI tumour cell line growth inhibition, 48 h
TGI by entry:

Recorded results for 2 compounds are shown here.
CCOC(=O)C(C(=O)OCC)P(=S)(S)c1ccccc1 (stereo not drawn): > 100 µM
CCOC(=O)c1cc2c([nH]1)c(OC(C)=O)cc1c2ccn1Cc1ccccc1: > 100 µM

Shift focus to the following entry.
Per the records, this compound ( "COC(=O)N[C@H]1C=C[C@@H]2/C=C(C)/C=C/[C@@H](C)[C@H]([C@H](C)[C@H](O)[C@@H](C)NC(C)=O)OC(=O)/C=C/C=C(C)\C=C\[C@]2(C)C1" ) has TGI equal to > 45.3 µM

----------
System: HS 578T breast
Test: NCI tumour cell line growth inhibition, 48 h; in the data active means GI50 below about 0.43 µM; inactive means the rest
Outcomes you can answer with include only these: TRUE (active), FALSE (inactive)

C=C(C)[C@@H]1CC[C@]2(C(N)=O)CC[C@]3(C)[C@H](CC[C@@H]4[C@@]5(C)C/C(=C/c6cccnc6)C(=O)C(C)(C)[C@@H]5CC[C@]43C)[C@@H]12: FALSE
CC(C)NCCCNc1c2ccccc2nc2cccc([N+](=O)[O-])c12: TRUE
NS(=O)(=O)c1ccc(N=Nc2c(O)[nH]c3ccc(Cl)cc23)cc1: FALSE

Could you now consider this next compound?
Per the assay record, what outcome was assigned to "COc1cc2nccc(Oc3ccc(NC(=O)C4(C(=O)Nc5ccc(F)cc5)CC4)cc3)c2cc1OC(=O)c1ccc(N)cc1" ?
TRUE

----------
System: SF-539 CNS
Assay: NCI tumour cell line growth inhibition, 48 h
Label rule, in plain words: TGI of 3 µM and up is condition met, under 3 µM is condition not met.

Worked examples, 2 compounds total:
CN(C)CCNS(=O)(=O)N(C)C: condition met
N/N=c1\c2ccccc2c2ccc3c4ccccc4/c(=N\N)c3c12: condition met

Please check the record "CC[O-].CC[O-].CN(C)c1ccc([O-])cc1.CN(C)c1ccc([O-])cc1.[Ti+4]" and state if its TGI is at or above 3 µM.
condition met

Is it the case that "CCOc1ccccc1C(=O)/C=C/c1cc2ccccc2[nH]c1=O" has TGI reaching or exceeding 3 µM?
condition not met

----------
Test system: HCT-116 colon
Assay: NCI tumour cell line growth inhibition, 48 h; in the data active = GI50 below about 0.43 µM; inactive = the rest
Please reply with one of these outcomes: Y for active, N for inactive

Use these answered entries as a reference point.
O=c1cc(/C=C/c2ccc(O)c(O)c2)cc(/C=C/c2ccc(O)c(O)c2)o1: N
O=C1c2ccccc2S(=O)(=O)N1CSC(=S)N1CCOCC1: N
O=c1[nH]nc(-c2nn(-c3ccc(Cl)cc3)cc2O)o1: Y
O=C1NC(=NCc2c(Cl)cccc2Cl)S/C1=C\c1ccc2ncccc2c1: N
COc1ccc(/C=C(/C(=O)N2CCCCC2)c2cc(OC)c(OC)c(OC)c2)cc1: Y

Per the assay record, what outcome was assigned to "CCN(CC)C(=S)SS(=O)(=O)c1ccc(N)cc1" ?
N

// return assay outcome for COc1ccc(C(O)c2cc3c(N)c(C(=O)Nc4ccccc4)sc3nc2C)cc1 (stereo unspecified)
Y

Lab log entry: "NS(=O)(=O)c1ccc(N=Nc2c(O)[nH]c3ccc(Cl)cc23)cc1" — outcome as called in the assay?
N

----------
# TGI per record follows
System: DMS 114 small cell lung
Experiment: NCI tumour cell line growth inhibition, 48 h

Known TGI results, listed for orientation:
NC(=O)/C(=N\NC(=O)c1cc2ccccc2cc1O)C1C(=O)N(c2ccccc2)N=C1N (stereo not drawn): 53.2 µM
COc1ccc(/C=C/C(=O)c2sc(Nc3ccc([N+](=O)[O-])cc3)nc2C)cc1: > 100 µM
COC(=O)C(/C(=N/NC(N)=O)C(=O)Nc1c(C)cccc1C(C)(C)C)c1nc2ccc(Cl)cc2[nH]c1=O (stereo not drawn): > 100 µM

Measured TGI, CCCCCCC1=NOC(C(c2cc[nH]c2)N(C)[C@H](C(=O)OC)C(C)C)C1 (stereo partly drawn) : > 100 µM

Looking up CCCCCCCCCCCCC(CC)CCCCC(=O)O (stereo not drawn) , I see its TGI listed as > 100 µM

----------
Tested on: HCT-116 colon
Experiment: NCI tumour cell line growth inhibition, 48 h
Catalogue of TGI readings, one per entry.

COC(=O)N[C@H]1C=C[C@@H]2/C=C(C)/C=C/[C@@H](C)[C@H]([C@H](C)[C@H](O)[C@@H](C)NC(C)=O)OC(=O)/C=C/C=C(C)\C=C\[C@]2(C)C1: > 45.3 µM
CCOC(=O)C1C(c2ccc3c(c2)OCO3)c2c([nH][nH]c2=O)CC1(O)OCC (centres undefined): > 100 µM
CC[N-]c1nnnn1CC.[Au+].c1ccc([PH+](c2ccccc2)c2ccccc2)cc1: 2.9 µM
CCN(CC)c1c(C(=O)/C=C/c2ccc(F)cc2)c(-c2ccccc2)nn(C)c1=O: 14.5 µM

# CCCCCCC1=NOC(C(c2cc[nH]c2)N(C)[C@H](C(=O)OC)C(C)C)C1 (some centres undefined) with HCT-116 colon: TGI is > 100 µM

Test item "COc1ccc2nc3c(n2c1)C(=O)C(=O)c1ccccc1-3" ; HCT-116 colon; reported TGI was 3.7 µM

// TGI (HCT-116 colon) for CC1(O)C(C)(O)C(C)(O)C1(C)O (centres undefined) = > 100 µM

Measured on HCT-116 colon, "CN1CCN(Cc2nc3cccc4c3c([n+]2[O-])-c2ccccc2-4)CC1" has a documented TGI of > 100 µM

Bench note, HCT-116 colon: entry "Cc1ncc([N+](=O)[O-])n1CCNC(=O)CCC(=O)NCCCn1ccnc1[N+](=O)[O-]" , its TGI = > 100 µM
